Assay target: LAT1–4F2hc complex (Homo sapiens, UniProt Q01650, Y259F)
Construct: full-length LAT1–4F2hc heteromeric complex, purified by size-exclusion chromatography; with Amino acid transporter heavy chain SLC3A2 (4F2 cell-surface antigen heavy chain)
Sequence (Q01650 2-507 Y259F): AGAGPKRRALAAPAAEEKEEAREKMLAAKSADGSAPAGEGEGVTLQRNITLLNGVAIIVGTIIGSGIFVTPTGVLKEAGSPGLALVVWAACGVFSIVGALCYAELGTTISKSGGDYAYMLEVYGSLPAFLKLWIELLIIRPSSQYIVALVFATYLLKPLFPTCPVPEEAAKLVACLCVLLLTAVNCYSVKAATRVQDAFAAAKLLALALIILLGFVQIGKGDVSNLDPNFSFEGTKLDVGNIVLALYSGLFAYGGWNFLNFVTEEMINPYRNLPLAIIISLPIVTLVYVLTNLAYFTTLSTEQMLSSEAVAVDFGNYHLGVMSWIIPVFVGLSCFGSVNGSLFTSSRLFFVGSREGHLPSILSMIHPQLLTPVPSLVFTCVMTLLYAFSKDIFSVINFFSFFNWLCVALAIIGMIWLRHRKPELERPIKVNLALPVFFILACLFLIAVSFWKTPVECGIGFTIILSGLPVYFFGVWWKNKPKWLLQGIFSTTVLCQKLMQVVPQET
Sequence (P08195 103-630 partner): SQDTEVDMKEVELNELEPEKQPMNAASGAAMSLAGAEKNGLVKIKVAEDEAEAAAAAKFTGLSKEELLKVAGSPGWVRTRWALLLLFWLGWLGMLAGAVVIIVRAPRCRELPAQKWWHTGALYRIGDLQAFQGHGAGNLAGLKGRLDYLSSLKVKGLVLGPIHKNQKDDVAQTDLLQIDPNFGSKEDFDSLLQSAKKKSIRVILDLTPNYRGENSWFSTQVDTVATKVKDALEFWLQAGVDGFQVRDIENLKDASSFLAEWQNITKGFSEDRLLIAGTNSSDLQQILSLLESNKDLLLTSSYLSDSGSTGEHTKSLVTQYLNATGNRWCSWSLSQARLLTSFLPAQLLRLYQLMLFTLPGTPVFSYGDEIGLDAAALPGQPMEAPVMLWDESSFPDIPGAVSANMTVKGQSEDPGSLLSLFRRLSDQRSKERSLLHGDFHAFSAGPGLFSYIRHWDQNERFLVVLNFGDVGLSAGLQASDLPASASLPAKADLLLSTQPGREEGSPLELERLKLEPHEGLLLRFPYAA
Procedure text: microscale thermophoresis (MST)
Run conditions: read-out: binding affinity
Attribute measured: pKd
In plain terms, pKd is the concentration in mol/L turned into minus its base-10 logarithm.

Q: For the molecule shown here, `Nc1cc(COc2c(Cl)cc(C[C@H](N)C(=O)O)cc2Cl)c2oc(-c3ccccc3)nc2c1` , give the reported pKd.
A: 5.42

----------
Assay target: LAT1–4F2hc complex (Homo sapiens, UniProt Q01650)
Construct: full-length LAT1–4F2hc heteromeric complex, purified by size-exclusion chromatography; with Amino acid transporter heavy chain SLC3A2 (4F2 cell-surface antigen heavy chain)
Sequence (Q01650 2-507, one chain of several): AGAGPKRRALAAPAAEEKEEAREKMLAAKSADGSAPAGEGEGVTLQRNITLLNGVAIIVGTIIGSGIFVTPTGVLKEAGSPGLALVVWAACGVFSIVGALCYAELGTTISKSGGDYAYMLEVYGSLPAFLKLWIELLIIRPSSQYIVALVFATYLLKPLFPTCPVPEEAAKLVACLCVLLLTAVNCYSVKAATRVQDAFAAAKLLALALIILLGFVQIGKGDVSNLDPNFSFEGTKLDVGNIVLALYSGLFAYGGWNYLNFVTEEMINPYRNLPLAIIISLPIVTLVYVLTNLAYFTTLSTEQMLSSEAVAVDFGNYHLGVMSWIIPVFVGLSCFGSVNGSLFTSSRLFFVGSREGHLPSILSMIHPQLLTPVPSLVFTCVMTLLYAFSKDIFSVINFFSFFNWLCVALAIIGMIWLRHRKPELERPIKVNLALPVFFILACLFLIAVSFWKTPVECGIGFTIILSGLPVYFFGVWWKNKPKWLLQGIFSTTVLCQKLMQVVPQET
Procedure text: microscale thermophoresis (MST)
Run conditions: read-out: binding affinity
Attribute measured: pKd
In plain terms, pKd is the concentration in mol/L turned into minus its base-10 logarithm.

Q: For the compound shown here, `Nc1cc(COc2c(Cl)cc(C[C@H](N)C(=O)O)cc2Cl)c2oc(-c3ccccc3)nc2c1` , give the reported pKd.
A: 5.83
